Value source: the nanobody polyreactivity screen of Harvey et al. (2022)

- Assay notes: yeast display, Sf9 membrane polyspecificity reagent, FACS + sequencing; frameworks hold sequencing errors
Measured attribute: polyreactivity (PSR sort gate)

QVQLVESGGGLVQAGGSLRLICAASGRIFPFYAMGWYRPEPGKERELVASISWSGGSTYYADSVKGRFTISRDNAKNPVYLQMNSLKPEDTAVFFCAARRWIADPGRIMDYWGQGTQVTVSS; high polyreactivity
QVQLVESGGGLVQAGGSLRLSCAASGSIFRNYAMGWYRQAPGKERELVARISYSGGRTHYADSVKGRFTISRDNAKNTVYFQMNSLNPEDTAVYYCAAPFHFTHFQGNYYWGQGTQVTVSS; low polyreactivity
QVQLVESGGGLVQAGGSLRLSCAASGSIFWRNAMGWYRQAPGKERELVAAITSGGTTNYADSVKGRFTISRDNAKNTVYLQMISLIPEDTAVYYCATGASYLRRYDHPHSDVDYWGQGTQVTVSS; low polyreactivity
QVQLVESGGGLVQAGGSLRLSCAASGIIFGTYAMGWYRQAPGKERELVAAITRSGGSTYYADSVMGRFTISRDNAKNTVYLQMNSLKPEDTAVYYCAASSTWYGYYIYVFRAYDYWGQGTQGTVSS; low polyreactivity

// query Give reported polyreactivity (PSR sort gate) value for QVQLVESGGGLVQAGGSLRLSCAASGRTFVGNAMGWYRQAPGKERELVAAISGRGGSTKYADSVKGRFTISRDYAKNTVYLQMNSLKPEYTAVYYCNAPRNYYKNRAYEYWGQGTKVTVSS
// result high polyreactivity

// query Give reported polyreactivity (PSR sort gate) value for QVQLLESGGGLVQAGGSLRLSCASSGYTIIQYAMGWYRQAPGKERELVAGNTWSGGSTYADSVKGRFTISRDNAKNTVYLQMKSLKQEDTAVYYCAADQEPGKYRFPYARKNNYWGQGTQVTVSS
// result low polyreactivity

// query Give reported polyreactivity (PSR sort gate) value for QVQLVESGGGLVQAGGSLRLSCAASGSIFDDNAMGWYRPAPGKERELVATINYGGGRTSYADSVKGRSTISRDNAKNTVYLQMNSLKPEDTAVYYCAADPRQKEDYWGQGTQVTVSS
// result low polyreactivity

// query Give reported polyreactivity (PSR sort gate) value for QVQLVESGGGLVQAGGSLRLSCAASGSTFESYAMGWYRQAPGKERELVAAISRRGGRTYYADSVKGRFTISRDNAKNTVYLQMYSLKPEDTAVYYCATDSSYYGSDDYWGQGTQVNVSS
// result high polyreactivity

// query Give reported polyreactivity (PSR sort gate) value for QVQLVESGGGLVQAGGSLRLSCAASGRIFDCYAMGWYIQAPGKERELVAAIRASGGRTYYADSVKGRFTISRDNAKNTVYLQMNSLKPEDTAVYYCAADSVKYGGDYWGQGTQVTVSS
// result high polyreactivity

// query Give reported polyreactivity (PSR sort gate) value for QVQLVESGGGLVQAGGSLRLSCAASGSTQFGYAIGWYRQAPGKEREFVAAITSGGNTYYADSVKGRFTISLDNAKYTVYLQMNSLKPEDTAVFYCNKRYRSFAARLRGYDYWGQGTQVTVSS
// result high polyreactivity

// query Give reported polyreactivity (PSR sort gate) value for HVQLVESGGGLVQAGGSLRLSCPASGRTFADNAMGWYRQAPGKERELVASISSGTSTNYADSVKGRFTISRDNAQNTVYVQMNSLKPEDTAVYYCNADGPIWYTAVLGVGRYYGWTDYWGQGTQVTVSS
// result low polyreactivity
